Where these numbers come from: patent US20220177587A1

target: human CTLA-4 (human) (UniProt P16410)
Sequence (P16410 36-223): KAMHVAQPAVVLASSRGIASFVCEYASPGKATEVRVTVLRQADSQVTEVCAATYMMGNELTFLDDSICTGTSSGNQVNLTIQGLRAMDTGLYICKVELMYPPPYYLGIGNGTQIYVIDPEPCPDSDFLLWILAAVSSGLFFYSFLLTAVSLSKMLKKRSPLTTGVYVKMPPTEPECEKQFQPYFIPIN
procedure text: flow cytometry, transfected Expi293F cells
Attribute: MFI
Lab note: jot the number down without any unit.

Just so you know, measured MFI for CD80 R29D/Y31L/Q33H/K36G/M38I/T41A/M43R/M47T/E81V/L85R/K89N/A91T/F92P/K93V/R94L/I118V/T120S/T130A/K169E/M174T ECD-Fc (Fc fusion) VIHVTKEVKEVATLSCGHNVSVEELAQTDILWHKEGKIVLAMRSGDTNIWPEYKNRTIFDITNNLSIVILALRPSDEGTYVCVVRKYENDTPVLEHLAEVTLSVKADFPTPSISDFEVPSSNIRRIICSASGGFPEPHLSWLENGEELNAINTTVSQDPETELYAVSSELDFNTTTNHSFMCLIKYGHLRVNQTFNWNTTKQEHFPDN came out at 2490

Documented MFI of CD80 Y53C/L85R/K89N/A91T/F92P/K93V/R94L/I118V/T120S/I127T/T130A/K169E ECD-Fc (Fc fusion) VIHVTKEVKEVATLSCGHNVSVEELAQTRIYWQKEKKMVLTMMSGDMNIWPECKNRTIFDITNNLSIVILALRPSDEGTYECVVRKYENDTPVLEHLAEVTLSVKADFPTPSISDFEVPSSNIRRITCSASGGFPEPHLSWLENGEELNAINTTVSQDPETELYAVSSELDFNMTTNHSFMCLIKYGHLRVNQTFNWNTTKQEHFPDN : 1460

The binder CD80 R29D/Y31L/Q33H/K36G/M38I/T41A/M43R/M47T/L70Q/D76G/A91G/S103L/I118V/T120S/I127T/T130A ECD-Fc (Fc fusion) VIHVTKEVKEVATLSCGHNVSVEELAQTDILWHKEGKIVLAMRSGDTNIWPEYKNRTIFDITNNLSIVIQALRPSGEGTYECVVLKYEKDGFKREHLAEVTLLVKADFPTPSISDFEVPSSNIRRITCSASGGFPEPHLSWLENGEELNAINTTVSQDPETELYAVSSKLDFNMTTNHSFMCLIKYGHLRVNQTFNWNTTKQEHFPDN showed MFI equal to 1730
